Cited source: ChEMBL document CHEMBL2375347

experiment: Toxicity in SCID mouse xenografted with human NCI-H460 cells; format: organism-based; conditions: in vivo

| Compound Structure | MTD [mg/kg] |
| --- | --- |
| O=C(/C=C/c1ccc(CNCC23CC4CC(CC2C4)C3)cc1)NO | 7.5 |

====

test: Inhibition of mouse liver HDAC by fluorescence assay
pIC50: −log10 of the molar value.
Tag: Satisfied if measured pIC50 is not below 7, Not satisfied if it is.

| Compound Structure | Group Label |
| --- | --- |
| O=C(/C=C/c1ccc(CNCC23CC4CC(CC(C4)C2)C3)cc1)NO | Satisfied |
| O=C(/C=C/c1ccc(CNC23CC4CC(CC(CO)(C4)C2)C3)cc1)NO | Not satisfied |
| CCOC12CC3CC(CC(NCc4ccc(/C=C/C(=O)NO)cc4)(C3)C1)C2 | Not satisfied |
| O=C(/C=C/c1ccc(CNCC23CC4CC(CC(F)(C4)C2)C3)cc1)NO | Satisfied |

====

system: NCI-H460; experiment: Cytotoxicity against human NCI-H460 cells by MTT assay; format: functional
In this section, each of the compounds is paired with its reported GI50.

| Compound | Subject Of Test | GI50 |
| --- | --- | --- |
| CCOC12CC3CC(CC(NCc4ccc(/C=C/C(=O)NO)cc4)(C3)C1)C2 | NCI-H460 | 6000 nM |
| COC12CC3CC(CC(NCc4ccc(/C=C/C(=O)NO)cc4)(C3)C1)C2 | NCI-H460 | 7000 nM |
| O=C(/C=C/c1ccc(CNCC23CC4CC(CC2C4)C3)cc1)NO | NCI-H460 | 10 nM |
| O=C(/C=C/c1ccc(CNCCC2C3CC4CC(C3)CC2C4)cc1)NO (stereo not given) | NCI-H460 | 10 nM |
| O=C(/C=C/c1ccc(CNCC23CC4CC(CC(C4)C2)C3)cc1)NO | NCI-H460 | 300 nM |
| O=C(/C=C/c1ccc(CNC23CC4CC(CC(Cl)(C4)C2)C3)cc1)NO | NCI-H460 | 4000 nM |
| O=C(/C=C/c1ccc(CNCC23CC4CC(CC(F)(C4)C2)C3)cc1)NO | NCI-H460 | 30 nM |
| O=C(/C=C/c1ccc(CN2CC3CC4CC(C3)CC2C4)cc1)NO | NCI-H460 | 4900 nM |
| O=C(/C=C/c1ccc(CNC2C3CC4CC(C3)CC2C4)cc1)NO (stereo not given) | NCI-H460 | 70 nM |
| O=C(/C=C/c1ccc(CNC23CC4CC(CC(C4)C2)C3)cc1)NO | NCI-H460 | 2800 nM |

====

assay: Inhibition of mouse liver HDAC by fluorescence assay
pIC50: −log10 of the molar value.
Decide by pIC50: equal to or exceeding 9 means Criterion met, less means Criterion not met.

| Molecule | Group Label |
| --- | --- |
| O=C(/C=C/c1ccc(CNCC23CC4CC(CC2C4)C3)cc1)NO | Criterion met |
| O=C(/C=C/c1ccc(CNC23CC4CC(C2)CC(c2ccccc2)(C4)C3)cc1)NO | Criterion not met |
| O=C(/C=C/c1ccc(CNC(=O)CC2C3CC4CC(C3)CC2C4)cc1)NO (stereo not given) | Criterion not met |

====

Parameter GI50: see the listing below.
tested on: NCI-H460; assay: Cytotoxicity against human NCI-H460 cells by MTT assay; assay type: functional

| Compound Structure | Unit Abbrev | GI50 |
| --- | --- | --- |
| O=C(/C=C/c1ccc(CNC(=O)CC23CC4CC(CC(C4)C2)C3)cc1)NO | nM | 1300 |
| O=C(/C=C/c1ccc(CNC(=O)C23CC4CC(CC2C4)C3)cc1)NO | nM | 350 |
| O=C(CCCCCCC(=O)Nc1ccccc1)NO | nM | 1000 |
| O=C(/C=C/c1ccc(CNC(=O)C23CC4CC(CC(F)(C4)C2)C3)cc1)NO | nM | 500 |
| O=C(/C=C/c1ccc(CNCCC23CC4CC(CC(C4)C2)C3)cc1)NO | nM | 1100 |
